# ASSAYED_SYSTEM: Fibrin (human plasma clot) (Homo sapiens, UniProt P02671-2;P02675;P02679-2 P02671-2:36-644,P02675:45-491,P02679-2:27-437)
# Sequence (P02671 other isoform, or with tags, fused parts or gaps, chain 1 of 3): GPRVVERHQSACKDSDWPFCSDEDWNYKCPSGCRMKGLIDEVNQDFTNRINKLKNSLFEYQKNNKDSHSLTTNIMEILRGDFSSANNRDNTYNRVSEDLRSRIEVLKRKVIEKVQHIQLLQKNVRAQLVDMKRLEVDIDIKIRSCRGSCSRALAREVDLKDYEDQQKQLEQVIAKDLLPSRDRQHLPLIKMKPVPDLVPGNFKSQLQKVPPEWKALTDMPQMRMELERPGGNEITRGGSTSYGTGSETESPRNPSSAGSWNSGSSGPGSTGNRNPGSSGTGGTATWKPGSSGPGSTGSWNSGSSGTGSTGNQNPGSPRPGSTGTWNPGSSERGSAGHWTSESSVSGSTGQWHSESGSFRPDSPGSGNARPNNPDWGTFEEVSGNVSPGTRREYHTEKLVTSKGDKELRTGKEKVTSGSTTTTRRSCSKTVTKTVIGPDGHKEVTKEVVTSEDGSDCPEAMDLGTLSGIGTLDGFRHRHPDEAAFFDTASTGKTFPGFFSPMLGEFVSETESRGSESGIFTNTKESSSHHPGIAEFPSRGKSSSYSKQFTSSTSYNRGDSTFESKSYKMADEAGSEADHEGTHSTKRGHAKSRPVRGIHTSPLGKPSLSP
# Sequence (P02675 45-491, chain 2 of 3): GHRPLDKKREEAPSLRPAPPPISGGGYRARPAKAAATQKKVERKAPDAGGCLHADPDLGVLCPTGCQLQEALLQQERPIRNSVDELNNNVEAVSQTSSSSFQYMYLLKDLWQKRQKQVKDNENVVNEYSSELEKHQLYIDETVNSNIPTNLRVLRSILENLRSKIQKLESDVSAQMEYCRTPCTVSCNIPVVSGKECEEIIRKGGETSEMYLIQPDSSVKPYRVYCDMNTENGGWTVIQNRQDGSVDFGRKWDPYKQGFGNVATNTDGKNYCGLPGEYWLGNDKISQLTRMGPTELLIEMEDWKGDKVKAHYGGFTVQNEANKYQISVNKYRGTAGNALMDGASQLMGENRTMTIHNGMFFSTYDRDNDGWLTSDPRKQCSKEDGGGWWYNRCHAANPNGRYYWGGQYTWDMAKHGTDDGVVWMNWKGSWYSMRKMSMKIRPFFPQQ
# Sequence (P02679 other isoform, or with tags, fused parts or gaps, chain 3 of 3): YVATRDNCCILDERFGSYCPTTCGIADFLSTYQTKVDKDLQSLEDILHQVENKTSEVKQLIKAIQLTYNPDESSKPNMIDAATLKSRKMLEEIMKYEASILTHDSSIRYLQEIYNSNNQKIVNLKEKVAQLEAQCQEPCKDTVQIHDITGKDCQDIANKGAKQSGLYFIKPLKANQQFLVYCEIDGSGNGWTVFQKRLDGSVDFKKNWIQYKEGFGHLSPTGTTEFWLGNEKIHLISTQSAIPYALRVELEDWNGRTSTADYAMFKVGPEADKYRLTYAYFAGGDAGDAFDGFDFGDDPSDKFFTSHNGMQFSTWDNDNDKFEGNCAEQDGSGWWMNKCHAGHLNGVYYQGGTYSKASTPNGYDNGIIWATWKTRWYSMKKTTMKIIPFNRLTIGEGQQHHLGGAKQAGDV
# METHOD_NOTES: competition; homogenized plasma clot, Scatchard high-affinity component
# SETTINGS: tags: clot from recalcified plasma, complex target; chain copies: 2
RECORDED_ENDPOINT: Kd (nM)

{"BINDER": "FC69 (ssRNA, 2'-F pyrimidines) RNA: GGGAGAUAAGAAUAAACGCUCAAACAAAUGUGCGCCCUUGGACGAAGUUAACUCGGACGGUUCUUCGACAGGAGGCUCACAACAGGC", "NUMERIC_VALUE": 14.1}
